The origin of these recorded values is the NIST ThermoML archive (doi:10.1021/je030226s).

Examples of compounds with documented refractive index follow.
protocol_summary: refractive index (Na D-line) (dimensionless); xn = mol fraction of the nth substance listed
experimental_context: 298.15 K; 101.32 kPa; Liquid; x2 = 0.6
quantity: refractive index

• CCCCCl [1-chlorobutane] + CCO = 1.3802
• CCCCCl [1-chlorobutane] + CCCO = 1.3904
• CCCCCl [1-chlorobutane] + CCCCO = 1.3979
• CCCCCl [1-chlorobutane] + CO = 1.371

====

The entries below are paired with their reported refractive index.
protocol_summary: refractive index (Na D-line) (dimensionless); xn = mol fraction of the nth substance listed
experimental_context: 298.15 K; 101.32 kPa; Liquid; x2 = 0.1
quantity: refractive index

• CCCCCl [1-chlorobutane] + CCCCO = 1.3987
• CCCCCl [1-chlorobutane] + CCCO = 1.3976
• CCCCCl [1-chlorobutane] + CCO = 1.3964
• CCCCCl [1-chlorobutane] + CO = 1.3964

====

Listed here: items and their measured viscosity.
protocol_summary: xn = mol fraction of the nth substance listed
experimental_context: 298.15 K; 101.32 kPa; Liquid; x2 = 0.2
quantity: viscosity (mPa·s)

* CCCCCl [1-chlorobutane] + CO | 0.412
* CCCCCl [1-chlorobutane] + CCCO | 0.461
* CCCCCl [1-chlorobutane] + CCO | 0.442
* CCCCCl [1-chlorobutane] + CCCCO | 0.499

====

protocol_summary: xn = mol fraction of the nth substance listed
experimental_context: 308.15 K; 101.32 kPa; Liquid; x2 = 0.2
This section presents molecules with their documented viscosity values.
quantity: viscosity (mPa·s)

- CCCCCl [1-chlorobutane] + CCCCO: 0.442
- CCCCCl [1-chlorobutane] + CCCO: 0.409
- CCCCCl [1-chlorobutane] + CO: 0.376
- CCCCCl [1-chlorobutane] + CCO: 0.395

====

experimental_context: 308.15 K; 101.32 kPa; Liquid
± gives the expanded uncertainty stated by the source.
quantity: mass density

- CCCCCl: 869.7 ± 0.7 kg/m3
- CCCO: 791.5 ± 0.9 kg/m3
- CCO: 776.6 ± 1 kg/m3
- CCCCO: 798.2 ± 0.9 kg/m3
- CO: 777.2 ± 1 kg/m3

====

protocol_summary: xn = mol fraction of the nth substance listed
experimental_context: 308.15 K; 101.32 kPa; Liquid; x2 = 0.05
quantity: mass density (kg/m3)

- CCCCCl [1-chlorobutane] + CO: 867.1
- CCCCCl [1-chlorobutane] + CCCCO: 865.7
- CCCCCl [1-chlorobutane] + CCCO: 866
- CCCCCl [1-chlorobutane] + CCO: 866

====

protocol_summary: refractive index (Na D-line) (dimensionless); xn = mol fraction of the nth substance listed
experimental_context: 288.15 K; 101.32 kPa; Liquid; x2 = 0.5
quantity: refractive index

* CCCCCl [1-chlorobutane] + CO | 1.3827
* CCCCCl [1-chlorobutane] + CCCO | 1.3968
* CCCCCl [1-chlorobutane] + CCO | 1.389
* CCCCCl [1-chlorobutane] + CCCCO | 1.4027

====

protocol_summary: xn = mol fraction of the nth substance listed
experimental_context: 288.15 K; 101.32 kPa; Liquid; x2 = 0.3
Listing of entries alongside the reported mass density.
quantity: mass density (kg/m3)

* CCCCCl [1-chlorobutane] + CCO | 871.7
* CCCCCl [1-chlorobutane] + CCCCO | 869.7
* CCCCCl [1-chlorobutane] + CO | 876.9
* CCCCCl [1-chlorobutane] + CCCO | 871.2
